Measured normalized RNA/DNA level without ligand (log10), listed per entry for reference.
B1: library; a variant is named by its letters at N, in order (parent)
chain: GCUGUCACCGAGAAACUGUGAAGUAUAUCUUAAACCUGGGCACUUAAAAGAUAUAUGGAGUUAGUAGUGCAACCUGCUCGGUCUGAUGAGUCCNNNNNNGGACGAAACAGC

Variants of: B1
RUN DESCRIPTION: normalized RNA/DNA level without ligand (relative to sTRSVctl = 100) (log10 (% of sTRSVctl)); HEK293T; ligand: cyclic di-GMP (c-di-GMP-II aptamer); higher = less ribozyme self-cleavage, higher mRNA level
MEASUREMENT CONDITIONS: reporter: mCherry (pCS4076), ligand present: no
# answer = number (no unit)

CAUAGU :: 1.72
AAACGC :: 1.67
AUUGUU :: 1.59
AGAUGA :: 1.4
CUCUCC :: 1.81

## Task Please look up its normalized RNA/DNA level without ligand (log10): `GUAUUU`
## Result 1.69

## Task Continue with `AACAGA`
## Result 1.39

## Task Continue with `CGGCGG`
## Result 1.68

## Task Continue with `GGCCUA`
## Result 1.61

## Task Continue with `ACGAGC`
## Result 1.62

## Task Continue with `UCCAAG`
## Result 1.6

## Task Continue with `UAGCUG`
## Result 1.74

## Task Continue with `AGGAGU`
## Result 1.52
